- Tested on: MCF10A
- Assay Protocol: 5+ nucleoli phenotype percent effect (relative to siNT 0% and siKIF11 100%); higher = more cells with five or more nucleoli
- Setup Conditions: 20 nM; 72 h

>  <Ordered Residues>
UUCCAUGCCUCCUAGAAGUUCC [hsa-miR-5581-3p]

>  <5+ nucleoli phenotype percent effect>
13.6%

$$$$
>  <Ordered Residues>
CUACUUCUACCUGUGUUAUCAU [hsa-miR-3682-5p]

>  <5+ nucleoli phenotype percent effect>
-33%

$$$$
>  <Ordered Residues>
GGAGGGGUCCCGCACUGGGAGG [hsa-miR-1914-3p]

>  <5+ nucleoli phenotype percent effect>
46.6%

$$$$
>  <Ordered Residues>
GCAGGAACUUGUGAGUCUCCU [hsa-miR-873-5p]

>  <5+ nucleoli phenotype percent effect>
31.2%

$$$$
>  <Ordered Residues>
CACUGUGUCCUUUCUGCGUAG [hsa-miR-892a]

>  <5+ nucleoli phenotype percent effect>
-27.3%

$$$$
>  <Ordered Residues>
CCCUCAUCUUCCCCUCCUUUC [hsa-miR-6891-3p]

>  <5+ nucleoli phenotype percent effect>
-10.8%

$$$$

* * *

percent viability reference
- Tested on: MCF10A
- Assay Protocol: percent viability (nuclei count relative to siNT); higher = more viable cells
- Setup Conditions: 20 nM; 72 h
Property Label: percent viability (%)

>  <Ordered Residues>
AAAUCUCUGCAGGCAAAUGUGA [hsa-miR-216b]

>  <Result Unit>
%

>  <Reported Measurement>
97.3

$$$$
>  <Ordered Residues>
CACUGUGUCCUUUCUGCGUAG [hsa-miR-892a]

>  <Result Unit>
%

>  <Reported Measurement>
57.7

$$$$
>  <Ordered Residues>
UGAUGGAUAAAAGACUACAUAUU [hsa-miR-3134]

>  <Result Unit>
%

>  <Reported Measurement>
27.6

$$$$
>  <Ordered Residues>
AGGCAGGUUAUCUGGGCUG [hsa-miR-4736]

>  <Result Unit>
%

>  <Reported Measurement>
12

$$$$
>  <Ordered Residues>
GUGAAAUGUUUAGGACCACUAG [hsa-miR-203a]

>  <Result Unit>
%

>  <Reported Measurement>
40.9

$$$$
>  <Ordered Residues>
GUGAGUGUGGAUUUGGCGGGGUU [hsa-miR-6790-5p]

>  <Result Unit>
%

>  <Reported Measurement>
31.8

$$$$
>  <Ordered Residues>
UUCUGGAUAUGAAGACAAUCAA [hsa-miR-4782-5p]

>  <Result Unit>
%

>  <Reported Measurement>
16.3

$$$$
>  <Ordered Residues>
CAAAAACUGCAAUUACUUUUGC [hsa-miR-548aq-3p]

>  <Result Unit>
%

>  <Reported Measurement>
115

$$$$
>  <Ordered Residues>
CAAGCUCGUGUCUGUGGGUCCG [hsa-miR-99b-3p]

>  <Result Unit>
%

>  <Reported Measurement>
84.3

$$$$
>  <Ordered Residues>
CCCUGUUCUAUGCCCUGAGGGA [hsa-miR-1266-3p]

>  <Result Unit>
%

>  <Reported Measurement>
90.7

$$$$
>  <Ordered Residues>
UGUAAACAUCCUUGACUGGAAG [hsa-miR-30e-5p]

>  <Result Unit>
%

>  <Reported Measurement>
61.8

$$$$
>  <Ordered Residues>
GUGUUAAUUAAACCUCUAUUUAC [hsa-miR-2053]

>  <Result Unit>
%

>  <Reported Measurement>
91.5

$$$$
